# Test system: CDK4-cyclinD1
# assay context: concentration: 1 μM, replicates: in singlicate; n = 1;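 also: KINOMEscan kinase panel screen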

compound: COc1ccc(CNC(=O)NC2CCN(c3ccnc(Nc4cc(OC)c(OC)c(OC)c4)n3)C2)cc1 (centres unmarked) [GSK1379748]
unit spec: %
%Inh: 6
--
compound: Clc1cc(Cl)cc(Nc2ccnc(Nc3cc(Cl)cc(Cl)c3)n2)c1 [GSK175726]
unit spec: %
%Inh: 0
--
compound: COc1cccc(-c2cc(-c3c[nH]nc3-c3ccccn3)ccn2)c1 [GW680338]
unit spec: %
%Inh: 58
--
compound: Nc1nc(-c2nccs2)c(-c2ccnc3ccccc23)s1 [GW693542]
unit spec: %
%Inh: 0
--
compound: O=C1NC(=O)C(N2CCc3ccccc32)=C1c1ccccc1Cl [SB-373598]
unit spec: %
%Inh: 14
--
compound: COc1ccc(Nc2nccc(NCCNC(=O)Nc3ccccc3F)n2)cc1 [GSK1379901]
unit spec: %
%Inh: 0
--
compound: CCn1c(-c2cccnc2O)nc2cnccc21 [SB-736715]
unit spec: %
%Inh: 7
--
compound: Cc1cccc(-c2nc(Nc3cccc(C(N)=O)c3)c3ccccc3n2)n1 [GW876019]
unit spec: %
%Inh: 18
--
compound: CS(=O)(=O)c1ccc(-c2c(-c3ncn[nH]3)sc(N3CCOCC3)c2C#N)cc1
unit spec: %
%Inh: 0
--
compound: CC(=O)Nc1nc2cnc(Nc3cc(NC(=O)c4cccc(CCC#N)c4)ccc3C)nc2s1
unit spec: %
%Inh: 0
--
compound: Cc1ccc(NC(=O)Nc2cccc(Cl)c2)cc1-c1ccc(C(=O)Nc2ccncc2)cc1 [GSK1398468]
unit spec: %
%Inh: 0
--
compound: Cc1nnc(-c2ccc3occ(-c4ccc(S(C)=O)cc4)c3c2)[nH]1 (centres unmarked)
unit spec: %
%Inh: 0
--
compound: O=C(Nc1n[nH]c2nc(-c3nccs3)c(Br)cc12)C1CC1 [SB-742251]
unit spec: %
%Inh: 65
--
compound: CCn1c(-c2ccccn2)nc2cnccc21 [SB-736398]
unit spec: %
%Inh: 0
--
compound: C[C@@H]1CCCCN1c1cc(-c2ccc3c(N)n[nH]c3c2)nc(N)n1 [GSK2258759]
unit spec: %
%Inh: 0
--
compound: Cc1cc(N2Cc3ccccc3C2)nc(Nc2ccc(S(=O)(=O)N3CCOCC3)cc2)n1.Cl [GSK1669917]
unit spec: %
%Inh: 0
--
compound: CC(C)(C)c1ccc(C(=O)Nc2cn3cc(Cl)ccc3n2)cc1
unit spec: %
%Inh: 11
--
compound: Cc1cccc(-c2nc(C)cc(Nc3ccncc3)n2)n1 [GSK257997]
unit spec: %
%Inh: 0
--
compound: O=S(=O)(c1ccc(-c2ccnc3[nH]ccc23)cc1)N1CCCC1 [GSK846226]
unit spec: %
%Inh: 0
--
compound: COC(=O)c1c(-c2ccccc2)c2cc(OC)ccc2c(=O)n1Cc1ccccc1
unit spec: %
%Inh: 0
--
compound: CSc1nn2c(=O)cc(N3CCOCC3)nc2n1Cc1cccc(C(F)(F)F)c1C [GSK2363608]
unit spec: %
%Inh: 0
--
compound: Fc1cccc(COc2nnc(-c3ccc4c(c3)CCO4)o2)c1
unit spec: %
%Inh: 9
--
compound: Cc1cc(-c2ccc3c(c2)CC[C@@H](N[C@@H](C)c2ccccc2)C3)cnc1N.Cl [GW412617]
unit spec: %
%Inh: 0

---

# Tested on: PKAC-beta
# Construct: gene PRKACB
# assay context: concentration: 1 μM, replicates: in singlicate; n = 1
value kind: %Inh (%)

compound: Fc1cccc(COc2nnc(-c3ccc4c(c3)CCO4)o2)c1
target or test system: PKAC-beta
value kind: %Inh
unit spec: %
reported result: 0

compound: COc1ccccc1CNC(=O)c1cc(C(=O)c2ccccc2C)c[nH]1
target or test system: PKAC-beta
value kind: %Inh
unit spec: %
reported result: 0

compound: COc1ccc2nc(-c3cccc(C)n3)nc(Nc3ccncc3)c2c1
target or test system: PKAC-beta
value kind: %Inh
unit spec: %
reported result: 0

compound: Cl.NC(=O)c1cccc(Nc2nccc(Nc3ccc(Oc4cccc(Cl)c4)c(Cl)c3)n2)c1
target or test system: PKAC-beta
value kind: %Inh
unit spec: %
reported result: 0

compound: Cc1cccc(-c2nc(Nc3ccncc3)c3ccccc3n2)n1
target or test system: PKAC-beta
value kind: %Inh
unit spec: %
reported result: 30

compound: Cn1ccc2ncnc(Oc3ccc(NC(=O)Nc4ccccc4)cc3)c21
target or test system: PKAC-beta
value kind: %Inh
unit spec: %
reported result: 17

compound: COc1ccc(C2=C(Nc3cccc(C(=O)O)c3)C(=O)NC2=O)cc1
target or test system: PKAC-beta
value kind: %Inh
unit spec: %
reported result: 25

compound: Cc1cc(NCC(c2ccccc2)c2ccccc2)nc(NCc2ccc(C(F)(F)F)cc2)n1
target or test system: PKAC-beta
value kind: %Inh
unit spec: %
reported result: 0

compound: COc1cc2ncn(-c3cc(OCC4CCCO4)c(C(N)=O)s3)c2cc1OC (stereo not shown)
target or test system: PKAC-beta
value kind: %Inh
unit spec: %
reported result: 0

compound: CCn1c(-c2ccccn2)nc2cnccc21
target or test system: PKAC-beta
value kind: %Inh
unit spec: %
reported result: 6

compound: Cc1cc(-c2ccc3c(c2)CC[C@@H](N[C@@H](C)c2ccccc2)C3)cnc1N.Cl
target or test system: PKAC-beta
value kind: %Inh
unit spec: %
reported result: 9

compound: CN1C(=O)C(Nc2ccc(Cl)c(C(=O)O)c2)=C(c2ccc(Cl)cc2)C1=O
target or test system: PKAC-beta
value kind: %Inh
unit spec: %
reported result: 4

compound: O=C(Nc1n[nH]c2nc(-c3nccs3)c(Br)cc12)C1CCCC1
target or test system: PKAC-beta
value kind: %Inh
unit spec: %
reported result: 0

compound: O=C(Nc1ccc2c(c1)OCO2)NC1CCN(c2ccnc(Nc3ccc(F)cc3)n2)C1 (stereo not shown)
target or test system: PKAC-beta
value kind: %Inh
unit spec: %
reported result: 0

compound: Cn1cncc1-c1ccc2ncnc(Nc3ccc(OCc4ccccc4)cc3)c2c1
target or test system: PKAC-beta
value kind: %Inh
unit spec: %
reported result: 8

compound: Nc1ncnc2[nH]c(-c3ccccc3)nc12
target or test system: PKAC-beta
value kind: %Inh
unit spec: %
reported result: 7

compound: O=C(O)COc1ncnc2cc(-c3ccc4[nH]ncc4c3)sc12
target or test system: PKAC-beta
value kind: %Inh
unit spec: %
reported result: 4

compound: CS(=O)(=O)c1ccc(-c2nc3n(c2-c2ccncc2)CCC3)cc1
target or test system: PKAC-beta
value kind: %Inh
unit spec: %
reported result: 0

compound: C[C@@H]1CCCCN1c1cc(-c2ccc3c(N)n[nH]c3c2)nc(N)n1
target or test system: PKAC-beta
value kind: %Inh
unit spec: %
reported result: 0

compound: Cn1ccc2ncnc(Oc3ccc(Nc4nc5ccccc5[nH]4)cc3)c21
target or test system: PKAC-beta
value kind: %Inh
unit spec: %
reported result: 0

compound: CC1=C(C(=O)Nc2cc3cn[nH]c3cc2F)C(c2ccc(C(F)(F)F)cc2)CC(=O)N1 (stereo not shown)
target or test system: PKAC-beta
value kind: %Inh
unit spec: %
reported result: 60

compound: Cc1cc(N2Cc3ccccc3C2)nc(Nc2ccc(S(=O)(=O)N3CCOCC3)cc2)n1.Cl
target or test system: PKAC-beta
value kind: %Inh
unit spec: %
reported result: 0

---

# System: STK36
# assay context: concentration: 1 μM, replicates: in singlicate; n = 1

molecule: COc1ccc(Nc2nccc(-c3cccc(NC(=O)c4cc5cc(F)ccc5[nH]4)c3)n2)cc1
%Inh / %: 0
//
molecule: COc1cc2ncn(-c3cc(OCC4CCCO4)c(C(N)=O)s3)c2cc1OC (centres unmarked)
%Inh / %: 0
//
molecule: COc1cc2nccc(Nc3ccc(NC(=O)c4ccc(C)cc4)c(O)c3)c2cc1OC.Cl
%Inh / %: 0
//
molecule: COc1ccccc1-c1ccc2c(NC(=O)C3CC3)n[nH]c2n1
%Inh / %: 6
//
molecule: CC(C)(C)c1ccc(C(=O)Nc2cn3cc(Cl)ccc3n2)cc1
%Inh / %: 0
//
molecule: Cc1cccc(-c2nc(Nc3cccc(C(N)=O)c3)c3ccccc3n2)n1
%Inh / %: 0
//
molecule: O=S(=O)(c1ccc(-c2ccnc3[nH]ccc23)cc1)N1CCCC1
%Inh / %: 0
//
molecule: Cl.c1ccc(-c2n[nH]cc2-c2ccnc(-c3ccc(CN4CCOCC4)cc3)c2)nc1
%Inh / %: 9
//
molecule: COc1ccc2nc(-c3cccc(C)n3)nc(Nc3ccncc3)c2c1
%Inh / %: 0
//
molecule: O=C1NC(=O)C(N2CCc3ccccc32)=C1c1ccccc1Cl
%Inh / %: 22
//
molecule: CN(C)CCN(C)C(=O)c1cc(-c2ccncc2)c(-c2ccc(Cl)c(O)c2)o1.Cl.Cl
%Inh / %: 0
